Reported IC50 values follow for various compounds
System: HIV strain HTLV-IIIB (WT)
Assay: p24 production in PBMNC infected with HTLV-IIIB
Type: cell-based, HIV-1
Conditions: Human immunodeficiency virus 1; HTLV IIIB, PBMNC; read-out: IC50[p24]
Experimental: Percent inhibition of viral replication was calculated by comparing the p24 values from the test substance treated infected cells with p24 values from untreated infected cells (i.e., virus controls). […] A Microculture Tetrazolium Assay (NTFA), using 2,3-bis(2-methoxy-4 nitro-5-sulfophenyl)-5-[(phenylamino)-carbonyl]-2H-tetrazolium hydroxide (XTT), was performed to quantitate cellular proliferation.

# smiles-data, relation, IC50 / nM
records = [
    ("Fc1ccccc1CCNC(=S)Nc1ccc(Br)cn1", "<", 1),
    ("Fc1ccc(CCNC(=S)Nc2ccc(Br)cn2)cc1", "=", 10),
]

* * *

tested on: HIV strain A17 (Y181C); test: p24 production in PBMNC infected with A17; type: cell-based, HIV-1; details: Human immunodeficiency virus 1, read-out: IC50 p24
pIC50: −log10 of the molar value.

# compound, relation, pIC50
measured = [
    ("Cc1ccnc2c1NC(=O)c1cccnc1N2C1CC1 [Nevirapine, reference compound]", "<", 4.00),
    ("Cc1cn([C@H]2C[C@H](N=[N+]=[N-])[C@@H](CO)O2)c(=O)[nH]c1=O [AZT, reference compound]", "=", 8.22),
    ("CC(C)Nc1cccnc1N1CCN(C(=O)c2cc3cc(NS(C)(=O)=O)ccc3[nH]2)CC1 [Delavirdine, reference compound]", "=", 4.30),
    ("Fc1ccccc1CCNC(=S)Nc1ccc(Br)cn1", "=", 6.70),
    ("COc1ccc(OC)c(CCNC(=S)Nc2ccc(Br)cn2)c1", "=", 7.00),
]

* * *

biological target: purified recombinant HIV RT (Human immunodeficiency virus type 1 group M subtype B, UniProt P04585); construct: purified recombinant HIV RT; assay: Purified RT assay, cell-free Quan-T-RT system (scintillation proximity); type: biochemical; conditions: recombinant HIV RT, cell-free; read-out: RRT (IC50[rRT])
pIC50: −log10 of the molar value.

# molecule, pIC50
measured = [
    ("Fc1cccc(CCNC(=S)Nc2ccc(Br)cn2)c1", 6.12),
    ("Fc1ccc(CCNC(=S)Nc2ccc(Br)cn2)cc1", 5.22),
    ("CCOCn1c(Cc2ccccc2)c(C(C)C)c(=O)[nH]c1=O [MKC-442, reference compound]", 6.10),
]

* * *

Target: purified recombinant HIV RT (Human immunodeficiency virus type 1 group M subtype B, UniProt P04585)
Construct: purified recombinant HIV RT
Assay: Purified RT assay, cell-free Quan-T-RT system (scintillation proximity)
Format: biochemical
Conditions: RRT (IC50[rRT]), recombinant HIV RT, cell-free
Protocol: The primer DNA is a 16-mer oligo(T) which has been annealed to a poly(A) template. The primer/template is bound to a strepavidin-coated SPA bead. 3H-TTP is incorporated into the primer by reverse transcription. […] The compound being tested was added to the reaction mixture at 0.001 μM–100 μM concentrations. […] The samples were counted in an open window using a Beckman LS 7600 instrument and IC, values were calculated by comparing the measurements to untreated samples.
pIC50: −log10 of the molar value.
experimental-readout: pIC50

# compound, experimental-readout, reported
data = [
    ("Fc1ccc(CCNC(=S)Nc2ccc(Br)cn2)cc1 [DDE242]", "pIC50", 5.22),
]
